# testedOn: T1, His-tagged I-BAR domain of IRSp53, wild type (human, UniProt Q9UQB8-4 1-250)
# T1 sequence: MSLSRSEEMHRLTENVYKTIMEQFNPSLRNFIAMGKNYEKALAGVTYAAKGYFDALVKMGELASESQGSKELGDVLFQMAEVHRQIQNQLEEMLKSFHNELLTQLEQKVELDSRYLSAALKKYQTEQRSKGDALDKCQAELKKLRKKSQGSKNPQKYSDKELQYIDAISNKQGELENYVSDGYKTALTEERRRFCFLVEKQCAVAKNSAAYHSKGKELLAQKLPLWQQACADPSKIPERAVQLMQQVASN
# experimentNotes: ITC
Where no end group is shown, it is not given here.
valueKind: Kd (µM)
Give the number; µM is assumed, so skip it.

Complete the entry with Kd for SEVVNPYAEVGG-NH2 [EPEC Tir-derived 12-mer peptide SEVVNPYAEVGG (residues 448-459)]
37
